- tested target: T1, Human CD38 on transiently transfected Expi293 cells (Origene SC321273) (human, UniProt P28907 1-300)
- T1 construct: whole, on cells
- test method notes: flow cytometry, 10 ug/ml scFv-Fc, transfected Expi293 cells
Hi there, I'd appreciate the recorded FACS percent gated for every entry that follows.
Give the value in % but do not write % after it.

Q: Consider the binder 40769p2.2.D3 scFv-Fc (scFv, V domains shown, scFv-Fc) VH: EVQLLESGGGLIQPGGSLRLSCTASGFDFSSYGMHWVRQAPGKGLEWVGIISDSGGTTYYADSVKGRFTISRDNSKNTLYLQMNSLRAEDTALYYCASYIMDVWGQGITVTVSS VL: QSVLTQPPSASGTPGQRVTISCSGSNSNVGVNSVYWYQQLPGTAPKLLIYGSGRRPSGVPDRFSVSKSGTSASLAISGLQSEDEADYYCAAWDGGLNAWVFGGGTKLTVL and give its measured FACS percent gated.
Result: 83.5

Q: GET /values?readout=FACS percent gated&item= 40769p2.2.A6 scFv-Fc (scFv, V domains shown, scFv-Fc) VH: EVQLLESGGGLVQPGGSLRLSCAASGFTFSDYEMNWVRQAPGKGLEWVSAISITGSWTYYADSVKGRFTISRDNSENTLYLQMNNLRAEDTAVYYCANYKSYYGMDVWGRGTTVTVSS VL: QSVLTQPPSASGTPGQRVTISCSGSRSNIRNNLVNWYQQLPGTAPKLLIYNTQRPSGVPDRFSGSKSGTSASLAISGLQSEDEADYYCASWDASLNAWVFGGGTKLTVL
Result: 92.2

Q: Report FACS percent gated for 40769p2.2.A5 scFv-Fc (scFv, V domains shown, scFv-Fc) VH: EVQLLESGGGLIQPGGSLRLSCTASGFDFSSYGMHWVRQAPGKGLEWVGIISDTGGTTYYGDSVKGRFTISRDNSKSTLYLQMNSLRAEDTALYYCASYIMDVWGQGTTVTVSS VL: QSVLTQPPSASGTPGQRVTISCSGSNSNVGDNAVYWYQQLPGTAPKLLFYGTNRRPSGVPDRFSGSKSGTSASLAISGLQSEDEADYYCAAWDDSLNAWVFGGGTKLTVL please.
Result: 90.5

Q: Fill in: FACS percent gated of 40769p2.2.A9 scFv-Fc (scFv, V domains shown, scFv-Fc) VH: EVQLLESGGGLVQPGGSLRLSCTASGITFSRFNMFWVRQAPGKGLEFVASIRDDGSWTYYADSVKGQFTISRDNSKNTLYLQMNSLRAEDTAVYYCAKDYNSKDFIYHYVMDVWGQGTTVTVSS VL: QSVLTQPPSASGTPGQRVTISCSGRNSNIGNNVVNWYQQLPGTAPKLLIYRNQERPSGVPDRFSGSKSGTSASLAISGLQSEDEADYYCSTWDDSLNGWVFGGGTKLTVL is ___
Result: 91.2
